- target or test system: Neuropeptide FF receptor 1 (Homo sapiens)
- Sequence (Q9GZQ6 whole entry): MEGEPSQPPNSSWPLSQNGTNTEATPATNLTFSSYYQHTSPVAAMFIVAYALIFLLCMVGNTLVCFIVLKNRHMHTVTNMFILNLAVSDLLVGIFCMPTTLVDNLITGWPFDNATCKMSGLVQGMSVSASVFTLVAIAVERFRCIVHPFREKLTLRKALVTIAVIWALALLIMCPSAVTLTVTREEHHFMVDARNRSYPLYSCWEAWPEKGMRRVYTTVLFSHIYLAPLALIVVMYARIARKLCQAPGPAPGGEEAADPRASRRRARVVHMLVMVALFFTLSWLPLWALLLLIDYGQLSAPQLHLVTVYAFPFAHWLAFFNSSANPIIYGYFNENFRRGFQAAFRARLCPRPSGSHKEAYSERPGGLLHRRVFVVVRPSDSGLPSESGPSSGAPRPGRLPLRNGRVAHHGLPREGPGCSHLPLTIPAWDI
- procedure summary: Displacement of 125I-NPFF from human NPFFR1 incubated for 2 hrs by TopCount scintillation counting method
observed property: Ki (nM)
Give a bare numeral; the unit nM is implied.

Endpoint output: Ki of N=C(N)N/N=C/c1ccc(Br)c(Br)c1 . Value?
100

---

- target or test system: Neuropeptide FF receptor 1 (Homo sapiens)
- procedure summary: Displacement of [3H]-FFRF-NH2 from human FLAG-tagged NPFFR1 expressed in CHO cell membrane incubated for 30 mins by Topcount scintillation counting method
observed property: Ki (nM)
Give a bare numeral; the unit nM is implied.

Which Ki is reported with Neuropeptide FF receptor 1 (Homo sapiens) for this entry: O=C(N[C@@H](CCCN1CCCCC1)C(=O)NCCc1ccccc1)c1ccccc1-c1ccccc1 ?
172
